- PROTOCOL TEXT: Compound cytotoxicity, XTT-based colorimetric assay
- Type: cell-based
- CONDITION DETAILS: human; uninfected MT2 cells, day 4, XTT; read-out: CC50
PARAMETER MEASURED: CC50 at 4 days

Query string: Which CC50 at 4 days reading was recorded for the compound Cc1cc(C2CCC(F)(F)CC2)nc2nc([C@H](Cc3cc(F)cc(F)c3)NC(=O)Cn3nc(C(F)F)c4c3C(F)(F)[C@@H]3C[C@H]43)n(-c3ccc(Cl)c4c(NS(C)(=O)=O)nn(CCN5CC(C)(C)OC(C)(C)C5)c34)c(=O)c12 (atropisomer, axis not shown; (P)) [Example 17] ?
Result string: > 0.05 µM

Query string: Using the record for COCCCn1nc(NS(C)(=O)=O)c2c(Cl)ccc(-n3c([C@H](Cc4cc(F)cc(F)c4)NC(=O)Cn4nc(C(F)F)c5c4C(F)(F)[C@@H]4C[C@H]54)nc4nc(C5CCC(F)(F)CC5)cc(NCC(C)(C)N5CCOCC5)c4c3=O)c21 (atropisomer, axis not shown; (P)) [Example 546] , report its CC50 at 4 days.
Result string: > 0.02 µM

Query string: CC50 at 4 days for Cc1cc(C2CCC(F)(F)CC2)nc2nc([C@H](Cc3cc(F)cc(F)c3)NC(=O)Cn3nc(C4CC4)c4c3C[C@@H]3C[C@H]43)n(-c3ccc(Cl)c4c(NS(C)(=O)=O)nn(CCNC5COC5)c34)c(=O)c12 (atropisomer, axis not shown; (P)) [Example 279] ?
Result string: > 0.05 µM

Query string: Please give the measured CC50 at 4 days for this compound: COCCNc1cc(C2CCC(F)(F)CC2)nc2nc([C@H](Cc3cc(F)cc(F)c3)NC(=O)Cn3nc(C(F)F)c4c3C(F)(F)[C@@H]3C[C@H]43)n(-c3ccc(Cl)c4c(NS(C)(=O)=O)nn(CCN5CCC(F)(F)CC5)c34)c(=O)c12 (atropisomer, axis not shown; (P)) [Example 413]
Result string: > 0.02 µM

Query string: Which CC50 at 4 days value is on record for COCCCn1nc(NS(C)(=O)=O)c2c(Cl)ccc(-n3c([C@H](Cc4cc(F)cc(F)c4)NC(=O)Cn4nc(C(F)(F)F)c5c4C(F)(F)[C@@H]4C[C@H]54)nc4nc(C5CCC(F)(F)CC5)cc(C)c4c3=O)c21 (atropisomer, axis not shown; (P)) [Example 89] ?
Result string: > 0.05 µM

Query string: // lookup CC50 at 4 days for C[C@H](Cn1nc(NS(C)(=O)=O)c2c(Cl)ccc(-n3c([C@H](Cc4cc(F)cc(F)c4)NC(=O)Cn4nc(C(F)F)c5c4C(F)(F)[C@@H]4C[C@H]54)nc4nc(C5CCC(F)(F)CC5)cc(C5CC5)c4c3=O)c21)N1C[C@H](F)C[C@H](F)C1 (atropisomer, axis not shown; (P)) [Example 684]
Result string: > 0.02 µM

Query string: // query CC50 at 4 days value for entry Cc1cc(C2(F)CCC(F)(F)CC2)nc2nc([C@H](Cc3cc(F)cc(F)c3)NC(=O)Cn3nc(C4CC4)c4c3C[C@@H]3C[C@H]43)n(-c3ccc(Cl)c4c(NS(C)(=O)=O)nn(CCN5CCOC(C)(C)C5)c34)c(=O)c12 (atropisomer, axis not shown; (P)) [Example 585]
Result string: > 0.02 µM

This collection of values is drawn from patent US12594276B2.
